Molecular target: GII.13 (norovirus GII.13)
Assay: ELISA
pEC50: −log10 of the molar value.

| BINDER | pEC50 |
| --- | --- |
| 202A.1 (antibody, V domains shown) VH: QVQLVQSGAEVKKPGASVKVSCKASEYTFTGYYLQWVRQAPGHGLEWMGWINPSGGTKYSQKFQGRVTMTRDTSITTVYMELSRLRSDDTAVYYCARDLLRNWGDHDAFDVWGQGTMVTVSS VL: QSVLTQPPSASETPGQGVTISCSGSSSNIGSNFVCWYQQVPGTAPKLLIYKNNQRPSGVPDRFSGSKSGTSASLAISGLRSEDEADYYCSAWDDSLSGPVFGGGTKLTVL | 8.40 |
